Below, each entry is listed with its recorded z-score.
Test: JC-1 mitochondrial potential readout, lung cancer cells – cell-based, A549, JC-1 fluorescence, basal, 24 h, 100 nL, profiling panel (AID 1138);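 note: A549 lung adenocarcinoma cells under basal conditions with no added stimulus; test concentration not given here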
Settings: higher = more signal
Value Kind: z-score

[[record]]
molecule = "COCCOC(=O)N1C(=O)[C@@]2(c3cc(C#CCNC(N)=O)ccc31)[C@H](C(=O)Nc1nc3ccccc3s1)[C@H]1C(=O)O[C@H](c3ccccc3)[C@H](c3ccccc3)N1[C@@H]2c1ccccc1OCCO"
endpoint_value = -1.79

[[record]]
molecule = "CN(C)C(=O)[C@@]1(Cc2ccccc2CN=[N+]=[N-])COC(c2ccc(OCCCO)cc2)=N1"
endpoint_value = 1.43

[[record]]
molecule = "C=CCN1Cc2ccccc2[C@H]2OC(c3ccc(OCCCO)cc3)=N[C@@]2(CCS(=O)(=O)c2ccccc2)C1=O"
endpoint_value = 0.35

[[record]]
molecule = "COC(=O)[C@H](Cc1ccccc1)N1CC2=CCCC=C[C@@H]2[C@H]1[C@H](O)Cc1ccccc1"
endpoint_value = 0.18

[[record]]
molecule = "C=C(COC)C(=O)CC[C@@H](OC(C)=O)c1ccccc1OCCO"
endpoint_value = 0.356

[[record]]
molecule = "C=CC[C@@]1(C(=O)N(C)C)N=C(c2ccc(OCCCO)cc2)O[C@@H]1c1ccccc1CN=[N+]=[N-]"
endpoint_value = 3.32

[[record]]
molecule = "O=C(NC1CC1)[C@@H]1c2ccccc2C(=O)N(Cc2ccc(OC(F)(F)F)cc2)[C@H]1c1ccc(CO)cc1"
endpoint_value = 1.39

[[record]]
molecule = "CC1CC/C=C\\[C@H]2OC34C=CCN(Cn5nnc6ccccc65)C(=O)[C@H]3N(CCCCCCO)C(=O)[C@@H]4C2C(=O)O1 (some centres undefined)"
endpoint_value = 0.966

[[record]]
molecule = "CN(C)CCCC[C@@H]1NC(=O)[C@H]2C[C@@H](C(=O)O)[C@@H](c3ccc(O)cc3)N2C1=O"
endpoint_value = -0.447

[[record]]
molecule = "Cc1ccc(S[C@]2(C(=O)NCCCN(C)C)CC(=O)N(C3Cc4ccccc4C3)[C@@H]2c2ccc(CO)cc2I)cc1"
endpoint_value = -0.522

[[record]]
molecule = "N#Cc1ccc(NN2C(C(O)C3CC=CCC3)C=CC3C(=O)N(c4ccccc4)C(=O)C32)cc1 (centres undefined)"
endpoint_value = 0.0165

[[record]]
molecule = "CC(C)c1nc2cc(Br)ccc2c(=O)o1"
endpoint_value = 0.48

[[record]]
molecule = "C=CC[C@]1(C(=O)NCC(O)CO)COC(c2ccc(OCCCO)cc2)=N1 (some centres undefined)"
endpoint_value = -0.565

[[record]]
molecule = "C=C(CCCC)/C(=C/C[C@H](OC(=O)c1ccncc1)c1cccc(OCCO)c1)c1cnc2ccccc2c1"
endpoint_value = 2.01


Where do the numbers come from? From PubChem BioAssay.
